Tested on: Metarhizium robertsii_XP_007823832
Test: maximal culture density with compound as sole sulfur source (OD600); higher = better growth
Settings: sulfur source concentration 200 µM; S. cerevisiae S288C/BY sul1Δ sul2Δ soa1Δ with transporter ortholog inserted at SOA1 locus; sulfur-free B medium, 4% glucose, pH 6.5, sole sulfur source
Class 1: maximal culture density at least 1. Class -1: maximal culture density below 1.

Answered cases to consult:
[[record]]
compound = "O=S(=O)(O)CCO [Isethionate]"
category = -1

[[record]]
compound = "CCS(=O)(=O)O [Ethanesulfonate]"
category = -1

[[record]]
compound = "N[C@@H](CS(=O)(=O)O)C(=O)O [L-cysteic acid]"
category = 1

[[record]]
compound = "O=S(=O)(O)CO [Hydroxymethane sulfonate]"
category = 1

[[record]]
compound = "O=C(O)CS(=O)(=O)O [Sulfoacetic acid]"
category = -1


(Q) Evaluate NCCS(=O)(=O)O [Taurine] : maximal culture density at minimum 1?
(A) -1

(Q) For CCCCS(=O)(=O)O [Butanesulfonate] then?
(A) -1

(Q) Queued: CSCC[C@H](N)C(=O)O [Methionine]
(A) 1

Hey, just so you know, these numbers are from the supplement of paper PMC5303821.
